System: mitochondria
Experiment: QSLR factorial logistic regression of mitochondrial localization (affinity coefficients, cross-validated prediction)
Set-up: species or system human
Settings: mitochondrial affinity; ±5 for groups always or never mitochondrial
property: estimated A group affinity coefficient ai
Write the value as a bare number.

Some solved cases for reference:
INSERT INTO assay_data (query_smiles, number) VALUES
  ('O=Cc1ccccc1[N+](=O)[O-]', '−2.7'),
  ('CC(=O)Nc1ccc(C=O)cc1', 0.8),
  ('O=CC=Cc1ccccc1', '−1.8'),
  ('CN(C)c1ccc(C=O)c2ccccc12', '−0.3'),
  ('O=Cc1ccccc1', 5.0);

Given O=Cc1c[nH]c2ccccc12 , state its recorded estimated A group affinity coefficient ai.
−1.7

Return reported estimated A group affinity coefficient ai; argument: O=Cc1ccc(-c2ccccc2)cc1
−5.0

For the compound O=Cc1ccc(Cl)cc1 , what estimated A group affinity coefficient ai is on record?
5.0

What does the data say about its estimated A group affinity coefficient ai? Entry: COc1ccc(C=O)cc1OC
5.0

###

Assay: Additive decomposition of peak excitation and emission wavelengths (model coefficients of A and B groups)
Conditions: influence of A group on peak excitation wavelength, A group 1 as baseline
From the text: The chemical structure of the styryl library is illustrated in FIG. 3. […] The additive model λij=ai+βj+εij was fit to the data using least squares yielding parameters αi^ex, αi^em, βj^ex, and βj^em that quantify the influence of each A and B group on the spectrum of the styryl product. […] Based on this analysis, the contribution of the A and B functional groups to the fluorescence of the styryl product is quantified using the fitted coefficients αi^ex, βj^ex, βi^em, and βj^em. […]
Consider the following compounds and their measured αi^ex readings.
Express the result in nm but write the number alone.

Example results:
INSERT INTO results (compound, property, number) VALUES
  ('O=Cc1c(F)c(F)c(F)c(F)c1F [A group 31]', 'αi^ex', '−22.4'),
  ('O=CCc1ccccc1 [A group 1]', 'αi^ex', 0.0),
  ('Cc1ccc(C=O)cc1 [A group 8]', 'αi^ex', 10.9),
  ('COc1cc(C=O)cc(OC)c1OC [A group 13]', 'αi^ex', '−44.2'),
  ('COc1ccccc1C=O [A group 9]', 'αi^ex', '−36.7');

For the compound COc1ccc(C=O)cc1OC [A group 11] , what αi^ex is on record?
−14.3

Which value of αi^ex has been reported for COc1ccc(C=O)c2ccccc12 [A group 14] in the records?
−1.6

Reported αi^ex, compound O=Cc1ccc(-c2ccccc2)cc1 [A group 17] : ____
−14.3

// query αi^ex value for entry CN(C)c1ccc(C=CC=O)cc1 [A group 37]
82.9

###

Tested on: mitochondria
Assay: QSLR factorial logistic regression of mitochondrial localization (affinity coefficients, cross-validated prediction)
Set-up: species or system human
Details: mitochondrial affinity; ±5 for groups always or never mitochondrial
property: estimated A group affinity coefficient ai
Kindly provide the number alone.

A selection of reference data follows.
INSERT INTO measurements (query_smiles, number) VALUES
  ('COc1ccc2ccccc2c1C=O', '−5.0'),
  ('O=Cc1ccc(Br)cc1', 5.0),
  ('O=Cc1cccc2ccccc12', 5.0);

Recorded estimated A group affinity coefficient ai for O=Cc1ccc2c(c1)OCO2 , please?
0.0

Would you mind telling me what estimated A group affinity coefficient ai value was observed for CN(C)c1ccc(C=O)cc1 ?
−0.2

Quick one: estimated A group affinity coefficient ai for O=Cc1cccc([N+](=O)[O-])c1 ?
0.8

Consider the compound COc1ccccc1C=O and give its measured estimated A group affinity coefficient ai.
5.0

Need estimated A group affinity coefficient ai, item O=Cc1ccc2ccccc2c1
5.0

Requested field: estimated A group affinity coefficient ai. Item: O=Cc1cccc(Br)c1
−5.0

Any idea what estimated A group affinity coefficient ai was measured for CN(C)c1ccc(C=CC=O)cc1 ?
−0.9

Data origin, for the record: patent US20070111251A1
